The following compounds are shown together with reported melting point values.

>>> print(df.to_string())
                                   compound  reported_result
0  O=C(c1ccc(F)cc1)c1ccc(C(=O)c2ccc(F)cc2)s1           186 °C

// melting point lookup, key: CC(C)(O)C1COCc2nc3c(N)nc4ccccc4c3n21 (stereo not given)
216 to 217 °C

Can you share its melting point? I mean this compound: COc1cc2[nH]cc(C(=O)Nc3cccnc3)c2cc1Br
> 250 °C

Which melting point value is on record for O=C(O)C=Cc1cccc(CCc2nc(-c3ccccc3)c(-c3ccccc3)o2)c1 ?
114 to 115 °C

State the recorded melting point for this entry: N#Cc1cc(F)c(-n2ncc(=O)[nH]c2=O)cc1F
> 250 °C

----------
MEASURED_PARAMETER: melting point

Consider the reported melting point for these molecules:
                                   molecule  reported_result
0  CCCCc1oc2ccccc2c1C(=O)NCc1ccc2c(-c3ccc(OC)cc3)c(OC(Cc3ccccc3)C(=O)OC)ccc2c1 (centres undefined)    103 to 105 °C
1            Cc1ccc([N+](=O)[O-])cc1NC(=N)N    135 to 142 °C

Query (molecule): N#Cc1ccc2c(c1)CCCC2(O)c1ccns1 (centres undefined) ; field requested: melting point
182 to 184 °C

Given the molecule Cc1ccc(CCOc2ncnc3c(F)cccc23)cc1 , what is its reported melting point?
72 to 74 °C

Requested field: melting point. Item: Cc1[nH]c2ccc(C3=NNC(=O)NC3C)cc2c1C (centres undefined)
292 to 296 °C

What value of measured melting point is listed for Cc1ccc2cccc(OCC(=O)c3ccc(Cl)cc3)c2n1 ?
112 to 113 °C

I have this molecule here, COc1ccc(C(C)C)cc1-c1cc(C(=O)NC2CCN(C(=O)OC(C)(C)C)CC2)c(OCc2ccccc2)cc1OCc1ccccc1 , and I need its recorded melting point.
168 to 170 °C

Consider the molecule shown here: CN(C)Cc1ccc(-c2csc(NC(=N)N)n2)o1 What is its recorded melting point?
> 200 °C

Which value of melting point has been reported for O[C@H]1CCC[C@H]1Oc1cccc2onc(OCC3CCN(CC4(O)CCOCC4)CC3)c12 (relative stereo) in the records?
141 °C

----------
Reported melting point values for the following compounds.

Reference set, count: 5
>>> print(df.to_string())
                                   compound  reported_result
0  O=C1Nc2cccc(Cl)c2C12COc1cc3c(cc12)CCO3 (stereo not given)         > 200 °C
1  COc1ccccc1NS(=O)(=O)c1ccc([N+](=O)[O-])cc1      96 to 98 °C
2           CC(=O)c1c(C)[nH]c(CC(C)(C)C)c1C    156 to 163 °C
3  CC1(N)CN(c2cc3c(cc2F)c(=O)c(C(=O)O)cn3-c2ccc(F)cc2F)C1    210 to 216 °C
4  COc1cc(Nc2c(C#N)cnc3cc(-c4cncc(CN5CCOCC5)c4)ccc23)c(Cl)cc1Cl    141 to 143 °C

I would be grateful if you could share the reported melting point for N#CCCNC(=O)c1n[nH]cc1NC(=O)c1ccc(Br)o1 .
220 to 222 °C

If you can, please state the reported melting point value of N#Cc1c(NCCCn2ccnc2)cccc1Oc1ccc(-c2cn(C3CCOC3)c3ncnc(N)c23)cc1 (stereo not given) .
110 °C

Entry CC(Cc1ccc(OCc2ccncc2)cc1)NCC(O)c1cccc(Cl)c1 (stereo not given) has what melting point?
85 to 110 °C

Item under review: CCCCCCCc1ccc([C@H]2CC[C@H](O)CC2)cc1 . Reported melting point?
80.2 to 82.5 °C

// melting point lookup, key: Nc1cc(OCC(O)CO)nc(N)n1 (stereo not given)
160 °C

For the compound shown here, Cc1oc(-c2ccc3ccccc3c2)nc1COc1ccc(CCCC#N)cc1 , give the reported melting point.
149 to 151 °C

I would be grateful if you could share the reported melting point for O=C(Nc1ccnc(Br)c1)C1(O)CCCCC1 .
179 °C

Look at this compound and give its reported melting point. CCCOc1ccccc1C1=NC(=O)C2=NC(C(F)(F)F)=NC2=N1
255 to 260 °C

Reported melting point for Cn1c(N2CC3CC2CN3C(=O)c2ccccc2)nc(-c2ccncn2)cc1=O (stereo not given) : what is it?
133 to 135 °C

So what does the record say about melting point for CCOC(=O)c1c(O)c2cccnc2n(CCc2ccccc2)c1=O ?
121 to 123 °C

----------
MEASURED_PARAMETER: melting point

>>> df
                                   molecule  reported_result
0  O=C(CC1COC1)N[C@H]1CC[C@H](CCN2CCC(c3cccc4c3CCO4)CC2)CC1           197 °C
1  CCC(c1cc2c(-c3ccc(C(F)(F)F)n(C)c3=O)c(F)cc(Cl)c2o1)S(C)(=O)=O (centres undefined)    146 to 148 °C
2  Cn1c(C(F)(F)F)cc(=O)n(-c2cc(OCC3CO3)c(Cl)cc2F)c1=O (centres undefined)      93 to 96 °C
3  CN(C)C1CCc2[nH]c3cc(F)ccc3c2C1 (centres undefined)    174 to 176 °C
4  CCOc1cc2c(cc1OC)C(c1ccc(OC)c(OC)c1)=NN=C(C)C2CC (centres undefined)    125 to 127 °C

Now consider the entry below.
Sample CCOc1ccc(N2CCN(c3c(C)c4c(c(OC)c3C)OC(C)(C)C4)CC2)cc1 — what was its melting point?
152 to 154 °C

----------
MEASURED_PARAMETER: melting point

Answered examples (6):
>>> df
                                   molecule  measured_parameter  reported_result
0  CC(Oc1ccc(Oc2ccc(Cl)cc2Cl)cc1)C(=O)N1CCCO1 (configuration not stated)       melting point    115 to 118 °C
1                  NNC(=O)c1cc2cc(Cl)ccc2s1       melting point      90 to 91 °C
2                   CC(=O)Nc1ccc(C#N)c(F)c1       melting point    190 to 192 °C
3  CC(=O)Nc1nc(-c2ccc([N+](=O)[O-])cc2)c[nH]1       melting point    242 to 244 °C
4      CCCCCCc1sc(C(N)=O)c2c1-c1c(cnn1C)CC2       melting point    100 to 101 °C
5  COC1(C)Oc2cccc(O)c2O1 (configuration not stated)       melting point    106 to 109 °C

Entry under review: C=C(Br)CCC(=O)NC(C(=O)OCC)C(=O)OCC . Reported melting point?
85 to 87 °C

Form field: reported melting point of CNS(=O)(=O)/C=C/c1cc(Cl)cnc1N
194 to 198 °C

Bench note: what melting point did Cc1cc(C)n2ncc(Br)c2n1 show?
115 to 116 °C

I am curious: what melting point value has been reported for Oc1ccc(CC2CO2)cc1 (racemic) ?
54 to 57 °C

Could you share which melting point value was measured for CCCc1c(OCCCOc2ccc(C(=O)CCl)c(OC)c2CCC)ccc2c1OC(C(=O)OC)CC2 (configuration not stated) ?
47 to 49 °C

Given the entry CCCCCC(=O)c1ncc(S(N)(=O)=O)s1 , report its measured melting point.
124 to 125 °C

----------
melting point reference

// below: answered compounds
>>> df
                                   compound  measured_parameter  reported_result
0                   c1cn2ccnc2c(N2CCOCC2)n1       melting point           127 °C
1                      NC(=S)NC1Cc2ccccc2C1       melting point           155 °C
2  C[C@@H](Nc1nnc(-c2ccccc2)c2occc12)C1CCCCC1       melting point    126 to 130 °C

Please look up its melting point: C[C@H]1COc2c(N3C[C@@H]4CCOC[C@@]4(N)C3)c(F)cc3c(=O)c(C(=O)O)cn1c23
> 300 °C

Value lookup for melting point; key = CCN1CCCC(NC2c3ccccc3Oc3ccccc32)C1 (stereo unspecified)
47.5 to 48.5 °C

So what's the measured melting point for this one? COc1ccc(CCN2CCC(N3CCc4ccc(CNC(C)=O)cc43)CC2)cc1
151 to 152 °C

Dear colleague, I am looking for the recorded melting point of the following compound: CC(C)OC(=O)C=CC(=O)c1ccc(Oc2ccccc2)cc1
71.5 to 72 °C

I am curious: what melting point value has been reported for CC(Nc1cc(Br)ccc1[N+](=O)[O-])C(=O)O (stereo unspecified) ?
183 to 187 °C
